Biological target: Receptor tyrosine-protein kinase erbB-2 (Homo sapiens)
Assay: Her2 expression decrease, cell viability multiplex – SKBR3 breast tumor cells, AlphaScreen, ATP viability, primary screen (AID 461);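 further: lower value means less Her2 protein in the cells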
Settings: 18-24 h, at 10 µM, stronger effect = lower value
readout_type: Her2 level (%)
Just the number please, in %, no unit attached.

Reference set (5 entries):
molecule: COc1ccc(S(=O)(=O)N(CC(=O)N2CCN(c3ccccc3OC)CC2)c2ccccc2)cc1
Her2 level / %: 108
//
molecule: O=C(CSc1nc2c(c(=O)n1-c1ccc(F)cc1)SCC2)NCC1CCCO1 (stereo unspecified)
Her2 level / %: 101
//
molecule: CCOC(=O)C(CC)Sc1ncnc2nc[nH]c12 (stereo unspecified)
Her2 level / %: 106
//
molecule: O=C(NCc1ccc2c(c1)OCO2)C1CCC(CNc2c(N3CCCCC3)c(=O)c2=O)CC1 (stereo unspecified)
Her2 level / %: 106
//
molecule: COc1ccc(CCn2c(-c3ccco3)nc3ccccc3c2=O)cc1OC
Her2 level / %: 89

Exam item: Quick check: Her2 level of "Cc1cc(C)n2nc(SCc3nc4ccccc4[nH]3)nc2n1" ?
Marked response: 81

----------
Test: MRP1 drug-resistance reversers in H69AR cells – cell-based, doxorubicin co-treatment, pilot screen (AID 601)
Conditions: H69AR cells + 2 uM doxorubicin, CellTiter-Glo, 72 h; measured here: viability with 2 uM doxorubicin; at 10 µM; stronger effect = lower value
// returns Not met unless viability is strictly below 90%, in which case Met

molecule: COCCN(CCOC)Cc1c(C)[nH]c2ccccc2c1=O
label_class: Not met
--
molecule: O=C(Cn1c(=O)sc2ccccc21)NCCOc1ccccc1F
label_class: Met
--
molecule: CCC(Oc1ccccc1)C(=O)Nc1ccccc1OC (configuration not stated)
label_class: Met
--
molecule: CC(O)CN1C(=O)C(CC(=O)Nc2ccc(Cl)cc2)SC1=Nc1ccccc1 (configuration not stated)
label_class: Met
--
molecule: Cn1c(Cc2ccccc2)nnc1SCC(=O)NC1CCCCC1
label_class: Met
--
molecule: O=C(CCC(=O)OCC(=O)c1ccccc1)NC1CCCCC1
label_class: Met

Exam item: Bench note: check whether "CCCC(=O)NCCc1cc2c(C)ccc(C)c2[nH]c1=O" shows viability below 90%
Marked response: Met

Exam item: Bench note: check whether "COC(=O)c1oc2ccc(Br)cc2c1NC(C)=O" shows viability below 90%
Marked response: Not met

----------
Experiment: S. cerevisiae growth inhibition in permissive medium (OD615), pilot counter-assay for S. cerevisiae lifespan shortening project, permissive growth control (AID 705)
Conditions: OD615, 24 h, at 10 µM, stronger effect = higher value
readout_type: growth inhibition (%)
Just the number please, in %, no unit attached.

Reference set (3 entries):
molecule: Cc1c(C)n(C(=O)CSc2nncn2C)c2ccccc12
readout_type: growth inhibition
numeric_readout: 3.06
//
molecule: Cc1ccc(OCC(=O)Nc2ccc(O)c(-c3nc4ccccc4o3)c2)cc1
readout_type: growth inhibition
numeric_readout: -10
//
molecule: Cc1cc(=S)n(-c2ccccc2)n1C
readout_type: growth inhibition
numeric_readout: 1.78

Exam item: Quick check: growth inhibition of "COc1ccc(N(CC(=O)Nc2nc3ccc(C)cc3s2)S(=O)(=O)c2c(C)nn(C)c2C)cc1" ?
Marked response: -5.89

Exam item: Quick check: growth inhibition of CCOC(=O)C1=C(C)NC(=O)NC1c1ccc(Br)s1 (centres undefined) ?
Marked response: -10.5

Exam item: Quick check: growth inhibition of "COc1cc(S(=O)(=O)N2CCN(c3ccccc3)CC2)ccc1Cl" ?
Marked response: -16.9

Exam item: Quick check: growth inhibition of COc1ccc(OC)c(C2C(C(=O)Nc3ccc(F)cc3)=C(C)Nc3nc(CCCO)nn32)c1 (centres undefined) ?
Marked response: -9.55

Exam item: Quick check: growth inhibition of "COc1ccc(-c2nc(C)c(C(C)=O)n2O)cc1OC" ?
Marked response: -5.41

Exam item: Quick check: growth inhibition of CC(=O)OC1c2c(ccc3ccc(=O)oc23)OC(C)(C)C1OC(=O)CC(C)C (centres undefined) ?
Marked response: -18.4

Exam item: Quick check: growth inhibition of "CCc1nc2sc(C)c(C)c2c(=O)n1CCO" ?
Marked response: -1.03

Exam item: Quick check: growth inhibition of O=C(NCCN1C(=O)C2C3C=CC(C3)C2C1=O)N1CCOCC1 (centres undefined) ?
Marked response: -8.54

Exam item: Quick check: growth inhibition of COCCCNC(=O)Cn1cc2c(n1)CCC(C)C2 (centres undefined) ?
Marked response: -1.62

Exam item: Quick check: growth inhibition of "COC(=O)c1ccc(-n2nnnc2SCc2nn[nH]n2)cc1" ?
Marked response: -0.675

Exam item: Quick check: growth inhibition of "CC(C)(C)SCCNC(=O)CN1C(=O)c2ccccc2S1(=O)=O" ?
Marked response: -13

Exam item: Quick check: growth inhibition of COCCNC(=O)C(C)N(c1ccc(Oc2ccccc2)cc1)S(C)(=O)=O (centres undefined) ?
Marked response: -4.62

Exam item: Quick check: growth inhibition of CC1CCN(C(C(=O)Nc2ccc3c(c2)OCO3)c2ccccc2)CC1 (centres undefined) ?
Marked response: 3.37

Exam item: Quick check: growth inhibition of CCOc1cccc(C(=O)N2CCCCC2c2cccnc2)c1 (centres undefined) ?
Marked response: -4.46

Exam item: Quick check: growth inhibition of O=C(OCC1COc2ccccc2O1)c1c(F)cccc1F (centres undefined) ?
Marked response: -5.97

Exam item: Quick check: growth inhibition of "CCOC(=O)CN(C(=O)c1ccccc1)c1ccccc1C" ?
Marked response: -12.9

Exam item: Quick check: growth inhibition of "O=P(O)(CN1CCCCCC1)CN1CCCCCC1" ?
Marked response: -16.8

Exam item: Quick check: growth inhibition of "CCN1CCN(C(=O)c2cc3c(-c4ccc(Cl)cc4)nn(C)c3s2)CC1" ?
Marked response: -4.23

Exam item: Quick check: growth inhibition of "Cc1cc(C)cc(NC(=O)CSc2nnc(Cn3c(=O)sc4ccccc43)n2C)c1" ?
Marked response: -6.84

Exam item: Quick check: growth inhibition of "Cn1ccnc1SCC(=O)Nc1ccc2ccccc2c1" ?
Marked response: 2.36

Exam item: Quick check: growth inhibition of "O=C(c1ccc2nc(N3CCOCC3)sc2c1)N1CCCC1" ?
Marked response: -2.18
